assay: Apparent half-life of the terminal disposition phase in C57BL/6 mouse plasma at 24.5 mg/kg, iv administered as single dose measured 24 hrs by UPLC-MS/MS analysis; type: ADME, organism-based; settings: read-out: t1/2 lambda z (converted)
property: half-life (h)
Answers are plain numbers, in h.

Prompt: So what does the record say about half-life for `C[C@H](Cc1ccc(OCc2ccc(Br)c(Cl)c2)cc1)N(C)CC(=O)O` ?
Completion: 3.93

* * *

experiment: AUClast in C57BL/6 mouse plasma at 22 mg/kg, iv administered as single dose measured 24 hrs by UPLC-MS/MS analysis; assay type: ADME, organism-based; parameters: dose 22 mg/kg, time 0 - last, route intravenous
property: AUC(0-t) at 24 h (ng·h/mL)
Numbers only, in ng·h/mL.

Prompt: So what does the record say about AUC(0-t) at 24 h for `C[C@H](Cc1ccc(OCc2ccc(Cl)c(Cl)c2)cc1)N(C)CC(=O)O` ?
Completion: 82000

* * *

experiment: Cmax in C57BL/6 mouse brain at 22 mg/kg, iv administered as single dose measured 24 hrs by UPLC-MS/MS analysis; type: ADME, organism-based; parameters: dose 22 mg/kg, route intravenous
property: Cmax (ng/mL)
Answers are plain numbers, in ng/mL.

Prompt: So what does the record say about Cmax for `C[C@H](Cc1ccc(OCc2ccc(Cl)c(Cl)c2)cc1)N(C)CC(=O)O` ?
Completion: 455

* * *

assay: Apparent half-life of the terminal disposition phase in C57BL/6 mouse plasma at 24.5 mg/kg, po administered as single dose measured 24 hrs by UPLC-MS/MS analysis; format: ADME, organism-based; conditions: read-out: t1/2 lambda z (converted)
property: half-life

Prompt: So what does the record say about half-life for `C[C@H](Cc1ccc(OCc2ccc(Br)c(Cl)c2)cc1)N(C)CC(=O)O` ?
Completion: 3.59 h

* * *

experiment: Cmax in C57BL/6 mouse brain at 24.5 mg/kg, po administered as single dose measured 24 hrs by UPLC-MS/MS analysis; assay type: ADME, organism-based; parameters: dose 24.5 mg/kg, route oral
property: Cmax
Dear colleague, please send the value followed by its unit.

Prompt: So what does the record say about Cmax for `C[C@H](Cc1ccc(OCc2ccc(Br)c(Cl)c2)cc1)N(C)CC(=O)O` ?
Completion: 812 ng/mL

* * *

test: Ratio of AUClast in brain to plasma in C57BL/6 mouse at 23.4 mg/kg, po administered as single dose measured 24 hrs by UPLC-MS/MS analysis; type: ADME, organism-based
property: Kp at 24 h

Prompt: So what does the record say about Kp at 24 h for `CN(CC(=O)O)[C@H](CC#N)Cc1ccc(OCc2ccc(Cl)c(Cl)c2)cc1` ?
Completion: 0.002

* * *

test: AUClast in C57BL/6 mouse plasma at 24.5 mg/kg, sc administered as single dose measured 24 hrs by UPLC-MS/MS analysis; assay type: ADME, organism-based; parameters: dose 24.5 mg/kg, time 0 - last, route subcutaneous
property: AUC(0-t) at 24 h (ng·h/mL)
Answers are plain numbers, in ng·h/mL.

Prompt: So what does the record say about AUC(0-t) at 24 h for `C[C@H](Cc1ccc(OCc2ccc(Br)c(Cl)c2)cc1)N(C)CC(=O)O` ?
Completion: 66900

* * *

assay: Cmax in C57BL/6 mouse brain at 20 mg/kg, iv administered as single dose measured 24 hrs by UPLC-MS/MS analysis; format: ADME, organism-based; design: dose 20 mg/kg, route intravenous
property: Cmax (ng/mL)
Numbers only, in ng/mL.

Prompt: So what does the record say about Cmax for `C[C@H](Cc1ccc(OCc2cccc(Cl)c2)cc1)N(C)CC(=O)O` ?
Completion: 648
